assayed-target: T1, CD70 on cells (CHO-CD70, JVM-3, U266, Raji, THP-1, T cells) (human, UniProt P32970 1-193)
T1 construct: whole, on cells; also called cell-surface CD70
T1 sequence (looked up): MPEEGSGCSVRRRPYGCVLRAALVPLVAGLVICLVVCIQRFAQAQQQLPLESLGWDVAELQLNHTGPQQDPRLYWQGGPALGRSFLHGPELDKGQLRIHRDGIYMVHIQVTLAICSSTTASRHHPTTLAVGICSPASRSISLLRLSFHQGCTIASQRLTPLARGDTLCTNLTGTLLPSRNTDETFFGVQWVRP
experiment-description: on Raji cells
property: cell binding
Just the number, please, no unit attached.

1. 4G7 (antibody, V domains shown, alloy mouse hybridoma antibody; also called 4G7E8) VH: QVQLVESGGGVVQPGRSLRLSCAASGFTFSSYGLHWVRQAPGKGLDWVAVIWYDGSNKYYVDSVKGRFTISRDNSMNTLFLQMNSLRAEDTAVYYCARDEAAAAGAFDIWGQGTMVTVSS VL: DIQLTQSPSFLSASVGDRVTITCRASQGISSYLAWYQQKPGKAPKLLIYAASTLQSGVPSRFSGSGSGTEFTLTISSLQPEDFATYYCQQLNYYSITFGQGTRLEIK
103000

Please turn your attention to the following entry.
# cell binding of 13G6 (antibody, V domains shown, alloy mouse hybridoma antibody; also called 13G6E8) VH: QVQLVESGGGVVQPGKSLRLSCAASGFTFSNYGIHWVRQAPGKGLEWVAVIWYDGSYKYYADSVKGRFTISRDNSKNTLYLQMNSLRAEDTALYYCARDTVDTYGSFDYWGQGTLVTVSS VL: DIQLTQSPSFLSASVGDRVTITGRASQGISSYLAWYQQKPGKAPNLLIYAASTLQSGVPSRFSGSGSGTEFTLTISSLQPEDFATYYCQQHNRYPITFGQGTRLEIK = 144000
